# tested system: Protein polybromo-1 (Homo sapiens)
# assay: Binding affinity to PB1 assessed as change in melting temperature at 100 uM by differential scanning fluorimetry
With a cut-off of -0.1 °C, any ΔTm strictly below it is called Criterion met; any ΔTm meeting it or above is called Criterion not met.

Solved entries (count: 5):
Cc1noc(C)c1-c1ccc2c(c1)CN(C)C(=O)N2 = Criterion not met
CC(=O)c1cccc(-c2c(C)noc2C)c1 = Criterion met
Cc1noc(C)c1-c1ccccc1 = Criterion not met
Cc1noc(C)c1-c1cccc(C(C)O)c1 (racemic) = Criterion not met
CCOc1cc(-c2c(C)noc2C)cc(C(C)O)c1 (racemic) = Criterion not met

Does the reported ΔTm of the following compound sit strictly below -0.1 °C? "CCOc1cc(C(C)=O)cc(-c2c(C)noc2C)c1"
Criterion met

Could you please tell me whether ΔTm recorded for "CCOc1cccc(-c2c(C)noc2C)c1" is less than -0.1 °C?
Criterion met

====

# tested system: CREB-binding protein (Homo sapiens, UniProt Q92793)
# assay: Displacement of H3K56Ac from human CREBBP by peptide displacement assay
parameter measured: log10 of IC50 (log10 of the value in µM)
Record value = log10 of IC50 given in µM.

Worked cases, answers included:
CCOc1cccc(-c2c(C)noc2C)c1 = 1.94
CCOc1cc(-c2c(C)noc2C)cc(C(C)O)c1 (racemic) = 1.45
Cc1noc(C)c1-c1ccc2c(c1)CN(C)C(=O)N2 = 0.53
CCOC(=O)c1cc(OCC)cc(-c2c(C)noc2C)c1 = 1.69
CC(=O)c1cccc(-c2c(C)noc2C)c1 = 1.75
CCOc1cc(C(C)=O)cc(-c2c(C)noc2C)c1 = 1.11
Cc1noc(C)c1-c1cccc(C(C)O)c1 (racemic) = 1.66

Return reported log10 of IC50. Input compound: "CCOc1cc(C(=O)O)cc(-c2c(C)noc2C)c1"
1.51

====

# tested system: Bromodomain-containing protein 4 (Homo sapiens)
# assay: Binding affinity to second bromodomain of BRD4 assessed as change in melting temperature at 100 uM by differential scanning fluorimetry
parameter measured: ΔTm (°C)
Numeric only. Scale: °C

Solved entries (count: 6):
CC(=O)c1cccc(-c2c(C)noc2C)c1 = 1.9
CCOc1cc(C(C)=O)cc(-c2c(C)noc2C)c1 = 6.5
CCOc1cc(C(=O)O)cc(-c2c(C)noc2C)c1 = 2.2
Cc1noc(C)c1-c1ccccc1 = 2.6
CCOc1cc(-c2c(C)noc2C)cc(C(C)O)c1 (racemic) = 8
CCOC(=O)c1cc(OCC)cc(-c2c(C)noc2C)c1 = 3.8

Fill in reported ΔTm for this entry: "CCOc1cccc(-c2c(C)noc2C)c1"
4

Query ΔTm for Cc1noc(C)c1-c1cccc(C(C)O)c1 (racemic)
6.3

====

# tested system: Bromodomain-containing protein 4 (Homo sapiens, UniProt O60885)
# assay: Binding affinity to first bromodomain of BRD4 assessed as change in melting temperature at 100 uM by differential scanning fluorimetry
Would you mind labelling by ΔTm? At or over 4 °C is Criterion met, under is Criterion not met.

Cc1noc(C)c1-c1ccc2c(c1)CN(C)C(=O)N2 = Criterion met

Dear colleague, could you confirm whether "CCOC(=O)c1cc(OCC)cc(-c2c(C)noc2C)c1" has ΔTm at or above 4 °C?
Criterion not met

// inclusive: ΔTm at least 4 °C? input: "Cc1noc(C)c1-c1ccccc1"
Criterion not met

Could you verify whether the entry "CCOc1cc(C(C)=O)cc(-c2c(C)noc2C)c1" shows ΔTm of no less than 4 °C?
Criterion met

Could you tell me if the measured ΔTm of "CCOc1cccc(-c2c(C)noc2C)c1" reaches 4 °C or more?
Criterion not met

====

# assay: Binding affinity to LOC93349 assessed as change in melting temperature at 100 uM by differential scanning fluorimetry
Each record here notes measured ΔTm.
Form entry: value (°C) — number only.

Solved cases (8 shown):
CCOc1cc(C(C)=O)cc(-c2c(C)noc2C)c1 = -1
Cc1noc(C)c1-c1ccccc1 = -0.6
CC(=O)c1cccc(-c2c(C)noc2C)c1 = -0.9
CCOc1cccc(-c2c(C)noc2C)c1 = -0.9
CCOC(=O)c1cc(OCC)cc(-c2c(C)noc2C)c1 = -0.2
CCOc1cc(C(=O)O)cc(-c2c(C)noc2C)c1 = -1.2
Cc1noc(C)c1-c1cccc(C(C)O)c1 (racemic) = -0.8
Cc1noc(C)c1-c1ccc2c(c1)CN(C)C(=O)N2 = -0.2

Attention now turns to another entry.
Using known records, supply ΔTm for CCOc1cc(-c2c(C)noc2C)cc(C(C)O)c1 (racemic)
-0.9

====

Examples of molecules with documented ΔTm follow.
# tested system: Bromodomain testis-specific protein (Homo sapiens) (UniProt Q58F21)
# assay: Binding affinity to BRDT assessed as change in melting temperature at 100 uM by differential scanning fluorimetry
Report the figure in °C without appending any unit label.

Cc1noc(C)c1-c1ccc2c(c1)CN(C)C(=O)N2 = 3.2
CCOc1cccc(-c2c(C)noc2C)c1 = -0.4
CCOc1cc(C(=O)O)cc(-c2c(C)noc2C)c1 = -0.8

Could you please provide reported ΔTm for "CC(=O)c1cccc(-c2c(C)noc2C)c1" ? Thanks!
-0.2

====

# tested system: Bromodomain-containing protein 2 (Homo sapiens, UniProt P25440)
# Sequence (P25440 whole entry): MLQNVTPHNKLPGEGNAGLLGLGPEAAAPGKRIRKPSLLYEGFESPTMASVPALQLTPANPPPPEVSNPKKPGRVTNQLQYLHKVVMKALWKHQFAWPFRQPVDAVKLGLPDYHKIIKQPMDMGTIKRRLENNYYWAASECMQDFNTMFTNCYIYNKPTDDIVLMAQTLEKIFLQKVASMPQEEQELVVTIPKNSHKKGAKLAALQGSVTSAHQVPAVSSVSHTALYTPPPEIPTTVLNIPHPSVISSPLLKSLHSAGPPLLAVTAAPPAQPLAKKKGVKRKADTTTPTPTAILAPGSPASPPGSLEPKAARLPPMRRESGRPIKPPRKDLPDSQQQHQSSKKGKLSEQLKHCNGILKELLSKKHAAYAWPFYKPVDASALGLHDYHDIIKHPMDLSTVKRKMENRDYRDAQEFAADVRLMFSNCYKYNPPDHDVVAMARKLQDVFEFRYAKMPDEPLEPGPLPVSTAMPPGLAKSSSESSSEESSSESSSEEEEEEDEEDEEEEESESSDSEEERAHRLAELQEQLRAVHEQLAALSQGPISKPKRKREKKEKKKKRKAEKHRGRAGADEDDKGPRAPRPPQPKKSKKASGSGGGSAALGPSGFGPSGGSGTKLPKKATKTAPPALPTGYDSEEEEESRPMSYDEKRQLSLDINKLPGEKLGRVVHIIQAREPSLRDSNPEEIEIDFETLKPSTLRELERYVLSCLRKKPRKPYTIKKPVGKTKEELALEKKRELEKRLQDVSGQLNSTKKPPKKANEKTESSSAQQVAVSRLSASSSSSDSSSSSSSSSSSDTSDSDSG
# assay: Displacement of H4Ac4 peptide from first bromodomain of human BRD2 by peptide displacement assay
# note: exactly 6 µM is not below, so it is NOT MET; use MET for IC50 strictly under it

Some solved entries appear below for comparison.
CCOC(=O)c1cc(OCC)cc(-c2c(C)noc2C)c1 = MET
Cc1noc(C)c1-c1cccc(C(C)O)c1 (racemic) = MET
CCOc1cc(C(C)=O)cc(-c2c(C)noc2C)c1 = MET

hey, is IC50 for "CCOc1cc(C(=O)O)cc(-c2c(C)noc2C)c1" lower than 6 µM or not?
NOT MET

In the record for "Cc1noc(C)c1-c1ccccc1" , is IC50 less than 6 µM?
NOT MET

Threshold test, IC50 < 6 µM: CCOc1cc(-c2c(C)noc2C)cc(C(C)O)c1 (racemic)
MET

Does "CCOc1cccc(-c2c(C)noc2C)c1" have IC50 strictly under 6 µM?
NOT MET

====

# tested system: Bromodomain-containing protein 4 (Homo sapiens, UniProt O60885)
# assay: Displacement of H4Ac4 peptide from first bromodomain of human BRD4 by peptide displacement assay
Criterion: IC50 strictly under 8 µM. Met: true (1). Not met: false (0).

Worked examples, 3 molecules total:
Cc1noc(C)c1-c1ccccc1 = false (0)
CCOc1cccc(-c2c(C)noc2C)c1 = false (0)
CCOc1cc(C(=O)O)cc(-c2c(C)noc2C)c1 = false (0)

Dear colleague, could you confirm whether IC50 of "CCOC(=O)c1cc(OCC)cc(-c2c(C)noc2C)c1" falls below 8 µM? Thanks.
true (1)

Strictly below 8 µM: is that where IC50 of Cc1noc(C)c1-c1cccc(C(C)O)c1 (racemic) sits?
false (0)

Check if IC50 falls below 8 µM for "CCOc1cc(C(C)=O)cc(-c2c(C)noc2C)c1" .
true (1)

In the record for CCOc1cc(-c2c(C)noc2C)cc(C(C)O)c1 (racemic) , is IC50 less than 8 µM?
true (1)

Given the entry "CC(=O)c1cccc(-c2c(C)noc2C)c1" , would its reported IC50 be below 8 µM?
false (0)

====

Measured ΔTm of individual entries
# tested system: CREB-binding protein (Homo sapiens, UniProt Q92793)
# assay: Binding affinity to CREBBP assessed as change in melting temperature at 100 uM by differential scanning fluorimetry
# Sequence (Q92793 2-2442 limits assumed): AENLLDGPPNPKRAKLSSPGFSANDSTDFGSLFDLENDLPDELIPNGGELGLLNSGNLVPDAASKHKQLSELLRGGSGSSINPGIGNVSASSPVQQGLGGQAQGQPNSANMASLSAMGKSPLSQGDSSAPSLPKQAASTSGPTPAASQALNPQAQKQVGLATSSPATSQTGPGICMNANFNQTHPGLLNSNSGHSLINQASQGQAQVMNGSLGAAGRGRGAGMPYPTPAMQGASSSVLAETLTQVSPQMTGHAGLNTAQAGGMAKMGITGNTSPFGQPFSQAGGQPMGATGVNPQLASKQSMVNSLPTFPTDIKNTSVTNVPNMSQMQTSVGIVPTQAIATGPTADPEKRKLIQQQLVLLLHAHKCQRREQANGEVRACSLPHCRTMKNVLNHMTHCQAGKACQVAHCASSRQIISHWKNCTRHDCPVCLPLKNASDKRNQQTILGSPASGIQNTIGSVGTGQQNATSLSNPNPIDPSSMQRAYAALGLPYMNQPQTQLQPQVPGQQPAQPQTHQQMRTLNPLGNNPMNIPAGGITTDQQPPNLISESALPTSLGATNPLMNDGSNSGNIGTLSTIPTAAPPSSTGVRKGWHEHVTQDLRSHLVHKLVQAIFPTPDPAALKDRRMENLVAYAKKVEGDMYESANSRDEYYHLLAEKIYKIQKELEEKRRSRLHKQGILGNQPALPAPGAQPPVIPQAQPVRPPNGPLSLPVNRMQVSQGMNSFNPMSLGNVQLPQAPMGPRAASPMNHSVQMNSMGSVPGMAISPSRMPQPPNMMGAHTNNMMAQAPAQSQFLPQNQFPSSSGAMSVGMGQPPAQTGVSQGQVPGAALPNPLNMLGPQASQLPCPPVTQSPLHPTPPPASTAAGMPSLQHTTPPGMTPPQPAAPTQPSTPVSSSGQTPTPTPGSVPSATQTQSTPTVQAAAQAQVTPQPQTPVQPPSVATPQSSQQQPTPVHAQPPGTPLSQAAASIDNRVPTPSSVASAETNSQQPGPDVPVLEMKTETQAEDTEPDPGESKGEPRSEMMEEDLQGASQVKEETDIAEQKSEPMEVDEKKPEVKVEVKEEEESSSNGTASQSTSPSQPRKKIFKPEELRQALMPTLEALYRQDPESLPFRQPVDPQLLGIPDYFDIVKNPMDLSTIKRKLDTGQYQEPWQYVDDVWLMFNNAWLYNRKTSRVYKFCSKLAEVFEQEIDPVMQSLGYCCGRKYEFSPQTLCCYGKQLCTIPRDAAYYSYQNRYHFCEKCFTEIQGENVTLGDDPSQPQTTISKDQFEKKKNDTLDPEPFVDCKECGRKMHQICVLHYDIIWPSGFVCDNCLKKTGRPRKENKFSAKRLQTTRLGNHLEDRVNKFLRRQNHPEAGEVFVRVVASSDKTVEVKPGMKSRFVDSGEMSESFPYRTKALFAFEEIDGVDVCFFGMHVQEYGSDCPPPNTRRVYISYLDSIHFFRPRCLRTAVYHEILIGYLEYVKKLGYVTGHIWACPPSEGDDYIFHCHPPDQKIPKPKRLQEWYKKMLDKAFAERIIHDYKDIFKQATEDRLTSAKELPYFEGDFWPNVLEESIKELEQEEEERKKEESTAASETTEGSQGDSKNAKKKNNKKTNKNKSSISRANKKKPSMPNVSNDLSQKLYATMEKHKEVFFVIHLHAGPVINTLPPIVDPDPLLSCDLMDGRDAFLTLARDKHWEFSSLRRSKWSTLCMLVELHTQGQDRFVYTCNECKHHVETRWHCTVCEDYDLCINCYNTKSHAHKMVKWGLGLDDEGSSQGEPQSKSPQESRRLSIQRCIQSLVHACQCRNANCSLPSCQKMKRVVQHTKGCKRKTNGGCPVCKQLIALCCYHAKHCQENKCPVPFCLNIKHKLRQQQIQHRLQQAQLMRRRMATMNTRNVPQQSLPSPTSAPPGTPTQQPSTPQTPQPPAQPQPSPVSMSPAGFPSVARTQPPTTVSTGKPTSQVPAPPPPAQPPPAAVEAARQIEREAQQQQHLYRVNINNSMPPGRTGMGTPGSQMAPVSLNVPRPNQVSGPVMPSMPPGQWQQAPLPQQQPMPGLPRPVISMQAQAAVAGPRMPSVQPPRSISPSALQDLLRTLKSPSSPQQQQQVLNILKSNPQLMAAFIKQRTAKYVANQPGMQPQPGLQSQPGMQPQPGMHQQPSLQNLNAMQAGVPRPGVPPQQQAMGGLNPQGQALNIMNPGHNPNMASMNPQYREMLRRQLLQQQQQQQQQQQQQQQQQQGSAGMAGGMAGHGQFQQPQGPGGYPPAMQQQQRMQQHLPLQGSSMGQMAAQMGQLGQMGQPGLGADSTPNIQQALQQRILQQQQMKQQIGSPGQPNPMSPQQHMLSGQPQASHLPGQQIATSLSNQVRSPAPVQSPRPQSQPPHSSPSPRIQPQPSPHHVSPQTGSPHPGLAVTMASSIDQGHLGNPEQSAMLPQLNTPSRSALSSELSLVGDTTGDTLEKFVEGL
Note: unit °C is implicit; provide only the numeric part.

Cc1noc(C)c1-c1cccc(C(C)O)c1 (racemic) = 1.5
Cc1noc(C)c1-c1ccccc1 = 0.6
CC(=O)c1cccc(-c2c(C)noc2C)c1 = 1.2
CCOc1cc(-c2c(C)noc2C)cc(C(C)O)c1 (racemic) = 4
CCOc1cccc(-c2c(C)noc2C)c1 = 0.7

Look up and report measured ΔTm for this entry: "CCOc1cc(C(C)=O)cc(-c2c(C)noc2C)c1"
3.4

Provide only the value of recorded ΔTm for "CCOc1cc(C(=O)O)cc(-c2c(C)noc2C)c1"
2.9

Supply reported ΔTm belonging to this compound: "Cc1noc(C)c1-c1ccc2c(c1)CN(C)C(=O)N2"
3.8

Tell me ΔTm reported for "CCOC(=O)c1cc(OCC)cc(-c2c(C)noc2C)c1"
-0.2

====

# tested system: Bromodomain-containing protein 3 (Homo sapiens)
# assay: Binding affinity to second bromodomain of BRD3 assessed as change in melting temperature at 100 uM by differential scanning fluorimetry
# ΔTm >= 4 °C gives Criterion met, anything below gives Criterion not met

Examples with answers:
CC(=O)c1cccc(-c2c(C)noc2C)c1 = Criterion not met
CCOc1cc(-c2c(C)noc2C)cc(C(C)O)c1 (racemic) = Criterion met
CCOc1cc(C(C)=O)cc(-c2c(C)noc2C)c1 = Criterion met
CCOC(=O)c1cc(OCC)cc(-c2c(C)noc2C)c1 = Criterion not met
CCOc1cc(C(=O)O)cc(-c2c(C)noc2C)c1 = Criterion not met

Determine whether this compound has ΔTm no lower than 4 °C: "Cc1noc(C)c1-c1ccccc1"
Criterion not met

For this compound, is measured ΔTm 4 °C or higher? "CCOc1cccc(-c2c(C)noc2C)c1"
Criterion met

In plain terms: is recorded ΔTm at least 4 °C for "Cc1noc(C)c1-c1ccc2c(c1)CN(C)C(=O)N2" ?
Criterion met

Determine whether this compound has ΔTm no lower than 4 °C: Cc1noc(C)c1-c1cccc(C(C)O)c1 (racemic)
Criterion met
